Exercise: state measured recovery at 30 min, 1 µM for each of the compounds provided.
experiment: In vitro metabolic stability, mouse; format: in vitro ADME; details: pH 7.4, % remaining after 30 min incubation with S9 microsomal fraction
One number for each entry, in %.

CN1c2ccccc2C(NCCCCCCCNCCc2c[nH]c3ccc(O)cc23)c2ccc(Cl)cc2S1(=O)=O (centres unmarked) : 1

Next, consider the following compound.
Note down recovery at 30 min, 1 µM recorded for CN1c2ccccc2C(NCCCCCCC(=O)NCCc2c[nH]c3ccc(O)cc23)c2ccc(Cl)cc2S1(=O)=O (centres unmarked) 5

---

biological target: human μ-opioid receptor (OPRM1) (Homo sapiens, UniProt P35372); assay: Intracellular calcium mobilization (FLIPR Tetra), HEK-hMOR agonism
Sequence (P35372 whole entry): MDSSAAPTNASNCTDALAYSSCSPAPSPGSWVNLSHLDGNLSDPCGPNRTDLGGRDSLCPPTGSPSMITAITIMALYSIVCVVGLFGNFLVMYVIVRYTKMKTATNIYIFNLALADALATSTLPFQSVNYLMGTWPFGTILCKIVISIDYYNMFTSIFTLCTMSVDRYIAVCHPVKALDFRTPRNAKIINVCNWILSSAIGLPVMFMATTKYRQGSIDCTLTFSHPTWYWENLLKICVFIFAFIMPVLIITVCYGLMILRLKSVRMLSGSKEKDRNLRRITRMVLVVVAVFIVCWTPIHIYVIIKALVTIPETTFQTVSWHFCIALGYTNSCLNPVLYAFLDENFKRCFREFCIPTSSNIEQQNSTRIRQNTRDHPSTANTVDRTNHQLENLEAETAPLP
Would you mind telling me the reported pEC50 of each entry?
One number for each entry, as −log10 of the molar value.

CN1c2ccccc2C(NCCCCCCC(=O)NCCc2c[nH]c3ccc(O)cc23)c2ccc(Cl)cc2S1(=O)=O (stereo not drawn) : 5.92
CC(C)C[C@H](CNC(=O)CCCCCCNC1c2ccccc2N(C)S(=O)(=O)c2cc(Cl)ccc21)CC(=O)O (stereo partly drawn) : 5.62

Find the measured pEC50 of CN1c2ccccc2C(NCCCCCCCNCCc2c[nH]c3ccc(O)cc23)c2ccc(Cl)cc2S1(=O)=O (stereo not drawn) and report it. 6.42
